# Lookup of reported GI50 keyed by entry
# Test system: EKVX
# method: NCI tumour cell line growth inhibition, 48 h
Calls of active or inactive are those of the source. Rule as the data show it: active = GI50 up to about 1.1 µM and inactive = higher.
readout.type: GI50

| compound | experimental.target | result |
| --- | --- | --- |
| Cn1cnc([N+](=O)[O-])c1Sc1nnc(-c2cccnc2)n1C | EKVX | 38.2 µM (inactive) |
| C=C1CCC[C@@H](C)C(O)[C@@H]2OC(=O)C(=C)[C@@H]2C[C@@H](OC(C)=O)[C@@]2(C)CC[C@@H]1O2 (stereo not given in full) | EKVX | 7.62 µM (inactive) |
| COc1ccc(-c2c(/C=N/OCC(=O)O)c3sc4ccccc4n3c2/C=N/OCC(=O)O)cc1 | EKVX | > 50 µM (inactive) |
| CCOC(=O)C1(c2ccccc2)CCC(=O)CC1 | EKVX | > 100 µM (inactive) |
| CSc1ncnc2c1cnn2CCCCO | EKVX | > 100 µM (inactive) |
| CSC1=N/C(=C\c2ccco2)C(=O)N1CN1CCCCC1 | EKVX | > 100 µM (inactive) |
| Cc1ccc([N+](=O)[O-])cc1S(=O)(=O)Nc1ccc(C2=NN(S(=O)(=O)c3cc([N+](=O)[O-])ccc3C)C(c3cccs3)C2)cc1 (stereo not given) | EKVX | 29 µM (inactive) |
| COc1ccccc1C1C(Cl)C(=O)N1n1cnc2ccccc2c1=O (stereo not given) | EKVX | > 100 µM (inactive) |
| Sc1nnc(SCc2ccccc2Cl)c2nc[nH]c12 | EKVX | 74.8 µM (inactive) |
| CCCCCCCCC(O)c1ccc(/C=C\C(O)CCCC(=O)O)s1 (stereo not given) | EKVX | > 100 µM (inactive) |

* * *

# Tested on: HCT-116
# method: NCI tumour cell line growth inhibition, 48 h
Activity calls are given as the source filed them. Cut-off read from the data, not from the text of the source: active = GI50 up to about 1.1 µM and inactive = higher.
Classes used: 1 (yes) = active, 0 (no) = inactive

| compound | label.class |
| --- | --- |
| CC1(C)C2CCC(=O)C1CC2 (stereo unspecified) | 0 (no) |
| CN(C)c1ccc(/C=C2\C[C@H]3[C@@H]4CC=C5C[C@@H](N6CCCC6)CC[C@]5(C)[C@H]4CC[C@]3(C)[C@H]2O)cc1 | 1 (yes) |
| O=C1CCCC(=O)N1CCc1c[nH]c2ccccc12 | 0 (no) |
| Cc1cccc(NC(=S)Nc2cccc(Cl)c2)n1 | 0 (no) |
| O=C(NCCNCCO)N/N=C/c1ccc(Cl)cc1 | 0 (no) |
| CCOC(=O)Cn1c(=O)n(C)c(=O)c2[nH]cnc21 | 0 (no) |
| COC(=O)C/N=C1\NC(=S)N(Cc2ccc(OC)cc2)C12CCCC2 | 0 (no) |
| COc1ccc(-c2c(/C=N/OCC(=O)O)c3sc4ccccc4n3c2/C=N/OCC(=O)O)cc1 | 0 (no) |
| COC(=O)C1=CC2OC13CC1CCC3(C2=O)C1(C)C (stereo unspecified) | 0 (no) |
| COC(=O)/C=C1\C(=O)N(C(C)=O)c2ccc(Br)cc21 | 0 (no) |
| O=C(CSc1nnc(Cc2ccccc2)o1)Nc1cccc(Cl)c1 | 0 (no) |

* * *

# System: RXF 393
# method: NCI tumour cell line growth inhibition, 48 h
Active and inactive are the calls of the source. Rule as the data show it: active = GI50 up to about 1.1 µM and inactive = higher.
Classes used: active, inactive

| molecule | label.class |
| --- | --- |
| CC(=O)c1c(O)ccc2c1CC(CC=O)O2 (configuration not stated) | inactive |
| CC1/C=C/C=C/CC/C=C/C=C/C=C/C=C/C(OC2OC(C)C(O)C(N)C2O)CC2OC(CC(O)C(O)CCC(O)CC(O)CC(O)CC(=O)OC(C)C(C)C1O)CC(O)C2C(=O)O (configuration not stated) | inactive |
| NC(=O)CO/N=C1/C(=C2/C(=O)Nc3ccccc32)Nc2ccccc21 | active |
| c1ccc(CSc2ccccc2CN2CCN(Cc3ccccc3SCc3ccccc3)CCN(Cc3ccccc3SCc3ccccc3)CC2)cc1 | inactive |
| CC(=O)OCC1OC(n2c(N)c(C#N)c(-c3cccc(Cl)c3)c(C#N)c2=S)C(OC(C)=O)C(OC(C)=O)C1OC(C)=O (configuration not stated) | inactive |
| COc1ccc(N2C(=O)CC(C3CC(C(C)(C)C)CCC3=O)C2=O)cc1 (configuration not stated) | inactive |
| O=C(/C=C/c1ccccc1)CSc1nc2ccc(I)cc2c(=O)n1Cc1ccccc1 | inactive |
| COc1ccc(/N=N/c2c(C)c(C#N)c(=S)n(C3OC(CO)C(O)C(O)C3O)c2C)cc1 (configuration not stated) | inactive |
| Cn1c(=O)cc(Nc2ccc(N)cc2)[nH]c1=O | inactive |
| CC1(C)C2CCC(=O)C1CC2 (configuration not stated) | inactive |
| Cc1nc(C(N)=S)sc1C(=O)CC(=O)C(=O)Nc1ccccc1[N+](=O)[O-] | inactive |
| COc1ccccc1C1C(Cl)C(=O)N1n1cnc2ccccc2c1=O (configuration not stated) | inactive |
| NCCSSCc1ccccc1CSSCCN | inactive |
| Cn1cnc([N+](=O)[O-])c1Sc1nnc(-c2cccnc2)n1C | inactive |
| COC(=O)C(=O)C(C(=O)C(=O)Nc1ccc([N+](=O)[O-])cc1[N+](=O)[O-])c1nc2ccc(Cl)cc2nc1O (configuration not stated) | inactive |
| O=C1Oc2ccccc2C(=O)/C1=C\Nc1nc(-c2ccccc2)cs1 | inactive |
| CC(=O)OCC(OC(C)=O)C1C[C@H]2O[C@@H]3[C@H](C[C@H]2O1)O[C@@]1(C[C@@H]3C)C[C@H](C)[C@@H]2O[C@]3(C[C@@H]2O1)C[C@H]1O[C@H]2[C@H](C)[C@H]4OC(=O)CC5CC[C@H]6OC7[C@H]8O[C@]9(CC[C@H]%10CC(O)(CO)[C@H](CC[C@H]%11C[C@@H](C)C(O)(CO)C(C[C@@H]4O[C@H]2C[C@H]1O3)O%11)O%10)CC8O[C@@H]7[C@@H](O9)[C@H]6O5 (some centres not stated) | active |
